# ASSAY_CONTEXT: 308.15 K; 101.3 kPa; Liquid mixture 1; spinning drop method
PROPERTY_MEASURED: interfacial tension (mN/m)

As a guide, the following entries are already answered.
INSERT INTO assay_data (compound, observed_value) VALUES
  ('CCCC(=O)OC [methyl butanoate] + O', 11.1),
  ('CCCCCC(=O)OC [methyl hexanoate] + O', 15.7),
  ('COC(C)=O [methyl ethanoate] + O', 1.49),
  ('CCCCC(=O)OC [methyl pentanoate] + O', 14);

(1) CCCCCCC(=O)OC [methyl heptanoate] + O
(2) CCC(=O)OC [methyl propanoate] + O
Input line: Rank 1 against 2 by their interfacial tension values and give the higher one. Which one? Tell me its label.
Output line: 1
